// provenance: patent US20260274955A1

targetEntity: T1, Anti-CD28 Fab (SEQ ID NOs: 202, 203)
T1 construct: biotinylated and captured on neutravidin coated plates in the phage ELISA
T1 sequence (VH, as listed by the source, chain 1 of 2): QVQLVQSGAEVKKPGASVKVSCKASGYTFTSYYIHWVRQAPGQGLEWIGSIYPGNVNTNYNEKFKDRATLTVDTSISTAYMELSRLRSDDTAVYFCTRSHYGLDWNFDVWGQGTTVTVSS
T1 sequence (VL, as listed by the source, chain 2 of 2): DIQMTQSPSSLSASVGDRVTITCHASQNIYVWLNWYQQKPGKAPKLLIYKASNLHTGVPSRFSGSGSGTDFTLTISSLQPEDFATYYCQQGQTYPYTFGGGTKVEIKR
assaySummary: phage ELISA, Fab on plate, CD28 antigen as competitor
Hi there, I'd appreciate the recorded Anti-CD28 Fab signal in the presence of CD28 for every entry that follows.

Consider the worked cases shown below.
Recall and state the measured Anti-CD28 Fab signal in the presence of CD28 for YCDGHLQEYMQKCL [Phage-627] . 0.06

Recall and state the measured Anti-CD28 Fab signal in the presence of CD28 for YCDGHSEAYIEKCL [Phage-648] . 0.06

Recall and state the measured Anti-CD28 Fab signal in the presence of CD28 for YCEGHLWEYLAKCL [Phage-734] . 0.05

Go through the list and state Anti-CD28 Fab signal in the presence of CD28 for each entry.
1. YCDGHSWIYMVKCL [Phage-717]
2. YCDGHAKVYIWKCL [Phage-745]
3. YCDGHAPEYLGKCL [Phage-609]

1: 0.06; 2: 0.08; 3: 0.06
